- protocol-description: Metabolic stability test in hepatocytes, mouse
- Format: in vitro ADME
- test-context: hepatocytes (suspension), Table 5: metabolic stability in hepatocytes, up to 90 min, read-out: Metabolic half-life in mouse liver microsome (T½, min)
parameter-measured: half-life at 1 μM (min)

> print(dat)
                                   molecule  parameter.measured  measure.unit  recorded.measurement
1  Cn1cc2c(n1)c(=O)n(-c1cccc3[nH]ncc13)c1nc(C(F)(F)F)ccc21   half-life at 1 μM           min                  91.1
2  Cn1cc2c(n1)c(=O)n(-c1cccnc1)c1cc(Cl)ccc21   half-life at 1 μM           min                  68.8
3  Cc1ncccc1-n1c(=O)c2nn(C)cc2c2ccc(C(F)(F)F)nc21 (single isomer, unassigned)   half-life at 1 μM           min                  47.1
4  Cn1cc2c(n1)c(=O)n(-c1cccnc1C1CC1)c1cc(Cl)c(F)cc21   half-life at 1 μM           min                   124
5  Cn1cc2c(n1)c(=O)n(-c1cccc(O)c1)c1nc(C(F)(F)F)ccc21   half-life at 1 μM           min                  14.9

----------
- protocol-description: Pharmacokinetic test in mice (IV and PO)
- Assay type: in vivo
- test-context: mouse, plasma; BALB/c mice, PO 5 mg/kg; read-out: T½ (converted)
parameter-measured: half-life (h)

> print(dat)
                                smiles.text  parameter.measured  measure.unit  recorded.measurement
1  Cn1cc2c(n1)c(=O)n(-c1cccc3[nH]ncc13)c1cc(Cl)c(C#N)cc21           half-life             h                   7.7

----------
- tested-on: MAT2A recombinant protein (Homo sapiens, UniProt P31153)
- Sequence (P31153 whole entry): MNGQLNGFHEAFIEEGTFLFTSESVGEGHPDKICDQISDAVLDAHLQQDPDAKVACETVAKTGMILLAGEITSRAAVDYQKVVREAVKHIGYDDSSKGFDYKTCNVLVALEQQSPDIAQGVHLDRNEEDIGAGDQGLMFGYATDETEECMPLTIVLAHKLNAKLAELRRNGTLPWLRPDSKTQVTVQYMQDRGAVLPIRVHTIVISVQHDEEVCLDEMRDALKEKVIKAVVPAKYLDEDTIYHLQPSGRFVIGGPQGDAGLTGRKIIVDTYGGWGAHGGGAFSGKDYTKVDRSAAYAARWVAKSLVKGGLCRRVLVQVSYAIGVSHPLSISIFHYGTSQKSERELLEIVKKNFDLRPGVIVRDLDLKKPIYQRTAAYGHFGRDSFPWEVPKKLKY
- protocol-description: MAT2A inhibitory activity (malachite green colorimetric enzyme assay)
- Assay type: biochemical
- test-context: IC50 score class; read-out: MAT2A Inhibition (score)
parameter-measured: IC50

> print(dat)
                                   compound  parameter.measured  recorded.measurement
1  O=c1c2nn(C3CCOC3)cc2c2ccc(C(F)(F)F)nc2n1-c1cccnc1 (centres unmarked)                IC50              < 0.1 µM
2  Cn1cc2c(n1)c(=O)n([C@@H]1CCCOC1)c1cc(Cl)ccc21                IC50           0.1 to 1 µM
3  Cn1cc2c(n1)c(=O)n(-c1c(F)cccc1F)c1nc(C(F)(F)F)ccc21                IC50              < 0.1 µM
4  CCn1cc2c(n1)c(=O)n(-c1c(C)ccnc1C)c1cc(Cl)ccc21                IC50              < 0.1 µM
5  Cc1cc(-n2c(=O)c3nn(C)cc3c3ccc(Cl)cc32)n(C)n1                IC50              < 0.1 µM

----------
- tested-on: PXR (Homo sapiens)
- Construct: host or cells: DPX2 cells
- Sequence (O75469 whole entry): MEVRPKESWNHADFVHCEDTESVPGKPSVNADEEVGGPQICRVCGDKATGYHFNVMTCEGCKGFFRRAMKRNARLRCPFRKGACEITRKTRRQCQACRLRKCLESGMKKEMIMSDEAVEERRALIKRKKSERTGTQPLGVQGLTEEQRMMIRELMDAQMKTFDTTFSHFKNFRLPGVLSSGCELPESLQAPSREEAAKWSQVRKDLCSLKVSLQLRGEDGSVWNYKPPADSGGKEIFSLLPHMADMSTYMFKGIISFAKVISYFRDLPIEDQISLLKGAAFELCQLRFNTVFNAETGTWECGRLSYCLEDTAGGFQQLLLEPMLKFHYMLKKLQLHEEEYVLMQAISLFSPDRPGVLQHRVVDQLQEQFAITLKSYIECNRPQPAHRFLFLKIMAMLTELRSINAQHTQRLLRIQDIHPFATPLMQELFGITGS
- protocol-description: PXR activation test in stably transfected DPX2 cells
- Type: cell-based
- test-context: DPX2 cells, 30 μM, 48 h
- Protocol: In this example, the compound was tested for PXR activation. 100 μL of stably transfected DPX2 cells were seeded per well of a 96-well cell culture plate (4.5×10^5 cells/mL in Puracyp medium), followed by placing the 96-well plate in a 37° C. incubator. […] The test plate was taken out and equilibrated to room temperature, and the fluorescence signal under the conditions of 400 nm excitation light/505 nm emission light was detected by a microplate reader. […]
The entries below are paired with their reported PXR activation fold (30 μM).
parameter-measured: PXR activation fold (30 μM)

> print(dat)
                                smiles.text           tested.on  recorded.measurement
1  O=c1c2n[nH]cc2c2ccc(C(F)(F)F)nc2n1-c1cccnc1  PXR (Homo sapiens)            34.49 fold
2  Cn1cc2c(n1)c(=O)n(-c1cccc3[nH]ncc13)c1cc(Cl)ccc21  PXR (Homo sapiens)            21.71 fold
3  Cn1cc2c(n1)c(=O)n(-c1cccc3[nH]ncc13)c1cc(Cl)c(F)cc21  PXR (Homo sapiens)             7.87 fold
4  Cn1cc2c(n1)c(=O)n(-c1cccc3[nH]ncc13)c1nc(C(F)(F)F)ccc21  PXR (Homo sapiens)             3.77 fold

// provenance: patent US20240391923A1
